System: hMSC-TERT
Details: 10 μM inhibitor in osteogenic inducing media, 6 days after induction, hMSC-TERT
assay.metric: Relative ALP activity

CC(C)c1cnc(NC(=O)Cc2ccccc2)s1: 0.7259
CC[C@H](CO)Nc1nc(NCc2ccccc2)c2ncn(C(C)C)c2n1: 0.3918
COc1cc2ncc(-c3ccccc3)nc2cc1OC: 0.5376
Oc1ccc(-c2nc(-c3ccc(F)cc3)c(-c3ccncc3)[nH]2)cc1: 0.2703

Record CN(C)CCCn1cc(C2=C(c3c[nH]c4ccccc34)C(=O)NC2=O)c2ccccc21 [GF 109203X] : what is its Relative ALP activity with hMSC-TERT? Toxic

So what Relative ALP activity did `CN[C@@H]1C[C@H]2O[C@@](C)([C@@H]1OC)n1c3ccccc3c3c4c(c5c6ccccc6n2c5c31)C(=O)NC4` get with hMSC-TERT? Toxic

Lab note: need Relative ALP activity for `O=c1cc(N2CCOCC2)oc2c(-c3ccccc3)cccc12` on hMSC-TERT, anyone have it? 0.439

Write down the reported Relative ALP activity of CCCCCCCCCCCCCCCC(=O)OC(CC(=O)O)C[N+](C)(C)C.[Cl-] (racemic) , test system: hMSC-TERT. 0.9612

Item `N#C/C(=C\c1ccc(O)c(O)c1)C(=O)Nc1ccccc1` with hMSC-TERT - Relative ALP activity? 0.33

---

Tested on: hMSC-TERT
Conditions: 10 μM inhibitor in osteogenic inducing media, 6 days after induction, hMSC-TERT
assay.metric: Relative ALP activity

Cn1cc(C2=C(c3cn(CCCSC(=N)N)c4ccccc34)C(=O)NC2=O)c2ccccc21 [Ro 31-8220]: Toxic
CC(C)(C)c1cc(C=C(C#N)C#N)cc(C(C)(C)C)c1O [Tyrphostin9]: Toxic
CC(=O)c1c(O)c(C)c(O)c(Cc2c(O)c3c(c(C(=O)/C=C/c4ccccc4)c2O)OC(C)(C)C=C3)c1O [Rottlerin]: Toxic

---

Tested on: hMSC-TERT
Details: 10 μM inhibitor in osteogenic inducing media, 6 days after induction, hMSC-TERT
assay.metric: Relative ALP activity

COc1cc2ncnc(Nc3cccc(Cl)c3)c2cc1OC: Toxic
CCCCCCCCCCCCC/C=C/[C@@H](O)[C@@H](N)CO: Toxic
Nc1ncnc2c1c(I)cn2[C@@H]1O[C@H](CO)[C@@H](O)[C@H]1O: Toxic
